- assay_procedure: Solubility of the compound by high-throughput equilibrium solubility assay
- Assay type: physicochemical
readout_name: solubility thermodynamic (µM)
One number for each entry, in µM.

# get_value(readout='solubility thermodynamic', item= CC(C)C[C@@H]1NC(=O)[C@H]([C@@H](C)O)N(C)C(=O)[C@H]2CCCN2C(=O)[C@H](CC(C)C)NC(=O)[C@H]([C@@H](C)O)N(C)C(=O)[C@H](CC(C)C)NC(=O)[C@H](C)N(C)C(=O)[C@H]2CCCN2C(=O)[C@H](CC(C)C)NC(=O)[C@H]([C@@H](C)O)N(C)C1=O ) 827

----------
- assay_procedure: Decadiene/water partition coefficient, logD of compound at pH 7.4 by HPLC analysis
- Format: physicochemical
Where a SMILES comes first, the peptide text is derived from it. [ ]: non-standard residue; d: D form. NMeA = CN[C@@H](C)C(=O)O; dNMeA = CN[C@H](C)C(=O)O
Assign logD hydrocarbon water to each entry below.
One number for each entry.

CC(C)C[C@@H]1NC(=O)[C@H]([C@@H](C)O)N(C)C(=O)[C@@H]2C[C@@H](O)CN2C(=O)[C@H](CC(C)C)NC(=O)[C@H](C)N(C)C(=O)[C@H](CC(C)C)NC(=O)[C@H](Cc2ccccc2)N(C)C(=O)[C@@H]2C[C@@H](O)CN2C(=O)[C@H](CC(C)C)NC(=O)[C@H](C)N(C)C1=O : -0.6

State the recorded logD hydrocarbon water for every item in the following list.
1. CC(C)C[C@@H]1NC(=O)[C@H](C)N(C)C(=O)[C@H](CC(C)C)NC(=O)[C@H](C)N(C)C(=O)[C@@H](C)N(C)C(=O)[C@H](CC(C)C)NC(=O)[C@H](C)N(C)C(=O)[C@H](CC(C)C)NC(=O)[C@H](C)N(C)C(=O)[C@@H](C)N(C)C1=O (cyclo(L[NMeA]L[dNMeA][NMeA]L[NMeA]L[dNMeA][NMeA]))
2. CC(C)C[C@@H]1NC(=O)[C@H](C)N(C)C(=O)[C@H]2CCCN2C(=O)[C@H](CC(C)C)NC(=O)[C@H](C)N(C)C(=O)[C@H](CC(C)C)NC(=O)[C@H](C)N(C)C(=O)[C@H]2CCCN2C(=O)[C@H]([C@@H](C)O)NC(=O)[C@H](C)N(C)C1=O

[2.7, 0.1]
